- Tested on: PC-3
- assay summary: NCI tumour cell line growth inhibition, 48 h
Activity calls are given as the source filed them. Cut-off read from the data, not from the text of the source: active = GI50 up to about 1.1 µM and inactive = higher.
Just give me one of these, please: active, inactive

compound=COc1ccc(/C=C2\C[C@H]3[C@@H]4CC=C5C[C@@H](O)CC[C@]5(C)[C@H]4CC[C@]3(C)\C2=N\O)cc1 group=inactive

## Task Field: outcome | Entry: Cc1cccc(NS(=O)(=O)c2ccc(/N=N/c3c(O)c(C(=O)O)cc4ccccc34)cc2)n1
## Result inactive

----------
- Test system: SK-MEL-5
- assay summary: NCI tumour cell line growth inhibition, 48 h
Activity calls are given as the source filed them. Rule as the data show it: active = GI50 up to about 1.1 µM and inactive = higher. Where a SMILES comes first, the peptide text is derived from it. [ ]: non-standard residue; d: D form. The star is where a group is joined. ξ: configuration not given here. ξD = NC(CC(=O)O)C(=O)O; Ac3c = NC1(C(=O)O)CC1; Boc = CC(C)(C)OC(=O)*; OBn = c1ccc(CO*)cc1
Just give me one of these, please: active, inactive

Look over these answered cases.
compound=ClCc1nnc2n1-c1ccc(Cl)cc1SC2 group=inactive
compound=COc1cccc(-c2cc(O)c3cc(C)cnc3n2)c1 group=active
compound="CC(O)/C=C/C1OC(=O)CC1Nc1ccc(C=O)cc1 (stereo not drawn)" group=inactive

## Task Field: outcome | Entry: CC(C)=CCc1cc(/C=C/C(=O)O)cc(CC=C(C)C)c1O [ARTEPILLIN]
## Result inactive

## Task Another compound to check: COC(=O)C1(NC(=O)C(CC(=O)OCc2ccccc2)NC(=O)OC(C)(C)C)CC1 (stereo not drawn) (Boc-[ξD](OBn)-[Ac3c]-OMe)
## Result inactive

## Task Another compound to check: COc1ccc(C(OC(=O)[C@H](O[Si](C)(C)C(C)(C)C)[C@@H](NC(=O)c2ccccc2)c2ccccc2)c2ccc(OC)cc2)cc1
## Result inactive

## Task Another compound to check: CCCNC(/C=C/[Si](C)(C)C)CO.CCCNCC(O)/C=C/[Si](C)(C)C (stereo not drawn)
## Result inactive

## Task Another compound to check: CC(C)[C@H]1CO[C@]2(C)[C@@H]3CN(Cc4ccccc4)C[C@@H]3C(=O)N12
## Result inactive

## Task Another compound to check: CC1=C(C#N)C(N)=C2C(C)=C(C#N)C(N)=C12
## Result inactive

## Task Another compound to check: C[As+](C)(c1ccc(Br)c([N+](=O)[O-])c1)c1ccc(Br)c([N+](=O)[O-])c1
## Result inactive

## Task Another compound to check: CCO/C=C\C12CCCC1NC(c1ccccc1)(c1ccccc1)O2 (stereo not drawn)
## Result inactive

## Task Another compound to check: O=c1c2ccc(Cl)cc2oc2c(CNc3ccc(S(=O)(=O)Nc4ncccn4)cc3)cccc12
## Result inactive

## Task Another compound to check: N/C(=N\N=C=C1C(=O)Nc2ccc(F)cc21)NO
## Result inactive

## Task Another compound to check: Oc1c2cc(Br)cc1CCc1cc(Br)cc(c1O)CC2
## Result inactive

## Task Another compound to check: CC1OC(OC2C(CO)OC(O[C@H]3CC[C@@]4(C)C(=CC[C@H]5[C@@H]6C[C@@H]7O[C@](O)(CC[C@H](C)COC8OC(CO)C(O)C(O)C8O)[C@@H](C)[C@@H]7[C@@]6(C)CC[C@@H]54)C3)C(OC3OC(C)C(O)C(O)C3O)C2O)C(O)C(O)C1O (stereo partly drawn)
## Result inactive

## Task Another compound to check: C[C@]12CC/C(=N\OC(=O)Nc3ccccc3)C=C1CC[C@@H]1C2CC[C@@]2(C)C1CC[C@@H]2OC(=O)Nc1ccccc1 (stereo partly drawn)
## Result inactive

## Task Another compound to check: O=C1N[C@H]2C(=O)c3c(Cl)sc(Cl)c3[C@H]2O1
## Result inactive

## Task Another compound to check: C=C1[C@H](OC(=O)C(C)C)[C@@H](OC(C)=O)[C@@H](OC(C)=O)C(C)(C)[C@@H]2O[C@H]2[C@@H](C)C(=O)[C@@]2(OC(C)=O)C[C@@](C)(OC(C)=O)[C@H](OC(C)=O)[C@@H]2[C@H]1OC(C)=O
## Result inactive

Each recorded value in this set is attributed to ChEMBL document CHEMBL1201862.
